Target: FBG domain of Tenascin C (FBG-C, FBG-BAP, hFBG-C) (Homo sapiens)
Sequence (P24821 1976-2193): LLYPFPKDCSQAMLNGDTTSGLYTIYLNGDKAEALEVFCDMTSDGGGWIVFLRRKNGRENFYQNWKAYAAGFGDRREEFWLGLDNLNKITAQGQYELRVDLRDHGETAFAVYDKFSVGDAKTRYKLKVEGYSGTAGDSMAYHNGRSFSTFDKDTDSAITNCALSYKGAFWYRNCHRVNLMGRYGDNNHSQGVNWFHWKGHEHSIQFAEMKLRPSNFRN
pKd: −log10 of the molar value.
quantity: pKd

COc1ccc(CN(C)CCc2cnn(C)c2)cc1OC[C@@H](O)CN1CCCCC1 [compound 830, 73494830]    3.26
